Target: glucocerebrosidase (Gcase) (Homo sapiens)
Sequence (P04062 40-536): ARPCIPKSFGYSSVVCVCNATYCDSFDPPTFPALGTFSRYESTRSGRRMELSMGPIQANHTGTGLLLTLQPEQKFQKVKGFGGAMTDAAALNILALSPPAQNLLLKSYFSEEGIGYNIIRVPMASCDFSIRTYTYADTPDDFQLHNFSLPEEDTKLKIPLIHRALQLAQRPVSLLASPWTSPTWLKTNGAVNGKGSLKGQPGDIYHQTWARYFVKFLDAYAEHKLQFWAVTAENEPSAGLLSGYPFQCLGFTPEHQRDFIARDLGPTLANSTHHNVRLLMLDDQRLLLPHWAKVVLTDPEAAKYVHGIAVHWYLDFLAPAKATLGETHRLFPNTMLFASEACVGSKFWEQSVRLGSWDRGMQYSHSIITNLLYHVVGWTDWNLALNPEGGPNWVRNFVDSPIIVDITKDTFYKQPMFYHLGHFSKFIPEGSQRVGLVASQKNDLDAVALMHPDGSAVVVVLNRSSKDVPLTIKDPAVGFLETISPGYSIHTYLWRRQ
Experiment: Glucocerebrosidase (Gcase) activation assay, 4-methylumbelliferyl-beta-D-glucopyranoside substrate, fluorescence
Format: biochemical
Conditions: 0.1 μM test compound; 10 nM GCase, 100 nM saposin C, pH 4.7; read-out: Percent Gcase Activation, 0.1 μM Test Compound
In this section we review reported activation at 0.1 µM values for a set of molecules.

Would you please look over these solved cases?
MOLECULE	TGT	MEASURED ATTRIBUTE	REPORTED MEASUREMENT
Cc1nc(-c2cccc(C(N)=O)c2)nc2c(C(=O)NC(C3CC3)C(F)(F)F)ccn12 (centres unmarked)	glucocerebrosidase (Gcase) (Homo sapiens)	activation at 0.1 µM	> 20%
Cc1nc(-c2cccc(F)c2)nc2c(C(=O)NC(C3CC3)C(F)(F)F)ccn12 (centres unmarked)	glucocerebrosidase (Gcase) (Homo sapiens)	activation at 0.1 µM	> 20%
COc1cc(-c2nc(C)n3ccc(C(=O)NC(C)C(F)(F)F)c3n2)ccc1F (centres unmarked)	glucocerebrosidase (Gcase) (Homo sapiens)	activation at 0.1 µM	> 20%
CCCCCO[C@H]1CC[C@H](NC(=O)c2cccc3c(C)nc(C)nc23)CC1	glucocerebrosidase (Gcase) (Homo sapiens)	activation at 0.1 µM	< 5%

Read the next record carefully.
[in] Look at this molecule and give its reported activation at 0.1 µM. Cc1nc(-c2cccc(C#N)c2)nc2c(C(=O)NC(C3CC3)C(F)(F)F)ccn12 (centres unmarked)
[out] > 20%
